Values from patent US10456394B2

system under test: Human HDAC6 (Homo sapiens (Human), UniProt Q9UBN7)
Sequence (Q9UBN7 whole entry): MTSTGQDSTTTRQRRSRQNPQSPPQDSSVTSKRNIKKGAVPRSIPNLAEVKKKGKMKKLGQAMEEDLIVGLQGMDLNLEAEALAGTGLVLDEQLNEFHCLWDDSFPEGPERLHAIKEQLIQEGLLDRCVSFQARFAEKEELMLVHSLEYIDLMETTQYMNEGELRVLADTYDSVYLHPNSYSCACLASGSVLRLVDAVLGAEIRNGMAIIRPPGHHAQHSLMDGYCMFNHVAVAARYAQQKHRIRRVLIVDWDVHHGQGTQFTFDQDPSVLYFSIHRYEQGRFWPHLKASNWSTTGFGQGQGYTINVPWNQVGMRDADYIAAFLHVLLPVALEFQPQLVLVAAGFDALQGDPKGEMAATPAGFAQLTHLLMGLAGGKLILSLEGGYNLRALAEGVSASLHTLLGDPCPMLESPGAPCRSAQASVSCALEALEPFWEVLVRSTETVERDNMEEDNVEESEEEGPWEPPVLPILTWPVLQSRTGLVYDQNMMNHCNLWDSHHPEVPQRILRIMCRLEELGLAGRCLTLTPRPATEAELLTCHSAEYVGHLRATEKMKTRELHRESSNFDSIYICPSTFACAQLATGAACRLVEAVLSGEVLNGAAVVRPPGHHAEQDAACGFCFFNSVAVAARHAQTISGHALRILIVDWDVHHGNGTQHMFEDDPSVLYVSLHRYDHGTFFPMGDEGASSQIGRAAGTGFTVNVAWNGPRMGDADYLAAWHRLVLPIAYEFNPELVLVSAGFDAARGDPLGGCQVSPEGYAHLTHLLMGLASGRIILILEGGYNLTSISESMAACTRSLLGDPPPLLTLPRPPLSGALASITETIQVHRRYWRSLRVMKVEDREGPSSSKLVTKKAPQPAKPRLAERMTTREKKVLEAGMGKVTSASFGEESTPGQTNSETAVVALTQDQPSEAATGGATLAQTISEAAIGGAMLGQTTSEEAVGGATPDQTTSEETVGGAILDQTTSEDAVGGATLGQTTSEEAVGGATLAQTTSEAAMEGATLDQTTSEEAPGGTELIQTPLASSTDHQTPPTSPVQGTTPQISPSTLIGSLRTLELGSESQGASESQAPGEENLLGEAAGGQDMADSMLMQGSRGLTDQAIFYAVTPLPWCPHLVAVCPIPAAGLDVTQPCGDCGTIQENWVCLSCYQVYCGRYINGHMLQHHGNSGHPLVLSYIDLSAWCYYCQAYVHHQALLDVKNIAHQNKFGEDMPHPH
procedure summary: HDAC enzyme activity inhibition assay, HDAC6
Format: biochemical
condition description: Table 1; ratio of IC50 values
readout kind: Selectivity HDAC1/HDAC6
// keep it numeric: no unit symbol after the value

[ask] Dear colleague, I am looking for the recorded Selectivity HDAC1/HDAC6 of the following compound: O=C(NO)c1ccc(CN2CCCc3cc(Cl)ccc32)c(F)c1 [Example 3]
[reply] 1706

[ask] Can you check O=C(NO)c1ccc(CN2CCCc3cc(Cl)c(Cl)cc32)cc1 [Example 6] next?
[reply] 728

[ask] Can you check O=C(NO)c1ccc(CN2CCSc3ccccc32)cc1 [Example 16] next?
[reply] 1300

[ask] Can you check O=C(NO)c1ccc(CN2CCNc3ccccc32)cc1 [Example 14] next?
[reply] 3017

[ask] Can you check O=C(NO)c1ccc(CN2CC[S+]([O-])c3ccccc32)cc1 (stereo not drawn) [Example 17] next?
[reply] 1300

[ask] Can you check CC1(C)CCN(Cc2ccc(C(=O)NO)cc2)c2ccc(Cl)cc21 [Example 12] next?
[reply] 516

[ask] Can you check O=C(NO)c1ccc(CN2CCCc3ccccc32)cc1 [Example 1] next?
[reply] 760

[ask] Can you check CC(c1ccc(C(=O)NO)cc1)N1CCCc2cc(Cl)ccc21 (stereo not drawn) [Example 4] next?
[reply] 22

[ask] Can you check CC1(C)CCc2cc(Cl)ccc2N1Cc1ccc(C(=O)NO)cc1 [Example 9] next?
[reply] 60

----------
system under test: HDAC4 (Homo sapiens (Human), UniProt P56524)
Sequence (P56524 whole entry): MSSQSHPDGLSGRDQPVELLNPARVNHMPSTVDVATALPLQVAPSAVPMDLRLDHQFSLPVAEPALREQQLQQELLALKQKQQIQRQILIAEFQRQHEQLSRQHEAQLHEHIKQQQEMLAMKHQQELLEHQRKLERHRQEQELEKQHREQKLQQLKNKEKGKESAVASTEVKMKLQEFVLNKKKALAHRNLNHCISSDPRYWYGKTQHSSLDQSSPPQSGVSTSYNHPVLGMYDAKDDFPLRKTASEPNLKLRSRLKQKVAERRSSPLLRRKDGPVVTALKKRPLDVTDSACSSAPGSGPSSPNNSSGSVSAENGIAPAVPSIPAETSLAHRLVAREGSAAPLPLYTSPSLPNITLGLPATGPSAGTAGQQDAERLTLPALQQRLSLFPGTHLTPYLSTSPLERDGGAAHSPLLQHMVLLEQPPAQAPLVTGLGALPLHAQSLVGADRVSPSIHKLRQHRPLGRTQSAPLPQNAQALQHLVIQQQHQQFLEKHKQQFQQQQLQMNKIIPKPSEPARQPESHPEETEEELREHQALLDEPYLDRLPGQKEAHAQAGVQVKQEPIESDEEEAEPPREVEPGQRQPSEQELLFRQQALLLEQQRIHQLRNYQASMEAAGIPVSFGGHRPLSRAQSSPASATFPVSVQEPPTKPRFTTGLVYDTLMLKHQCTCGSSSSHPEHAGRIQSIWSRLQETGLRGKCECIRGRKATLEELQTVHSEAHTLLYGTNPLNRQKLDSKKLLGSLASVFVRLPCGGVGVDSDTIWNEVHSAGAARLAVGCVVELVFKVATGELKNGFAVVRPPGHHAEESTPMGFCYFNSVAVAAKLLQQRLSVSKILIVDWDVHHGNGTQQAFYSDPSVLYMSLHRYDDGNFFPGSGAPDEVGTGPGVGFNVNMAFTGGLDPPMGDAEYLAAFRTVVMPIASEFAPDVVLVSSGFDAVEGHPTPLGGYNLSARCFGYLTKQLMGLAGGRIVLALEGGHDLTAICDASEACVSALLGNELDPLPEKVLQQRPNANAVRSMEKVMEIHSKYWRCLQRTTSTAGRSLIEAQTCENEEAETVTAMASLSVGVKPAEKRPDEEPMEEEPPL
procedure summary: HDAC enzyme activity inhibition assay, HDAC4
Type: biochemical
condition description: Table 2; mean of two experiments
readout kind: IC50
Phrase the answer as number then unit, nothing more needed.

[ask] Dear colleague, I am looking for the recorded IC50 of the following molecule: O=C(NO)c1ccc(CN2CCCc3cc(Cl)ccc32)cc1
[reply] 11000 nM

----------
system under test: HDAC2 (Homo sapiens (Human))
Sequence (Q92769 whole entry): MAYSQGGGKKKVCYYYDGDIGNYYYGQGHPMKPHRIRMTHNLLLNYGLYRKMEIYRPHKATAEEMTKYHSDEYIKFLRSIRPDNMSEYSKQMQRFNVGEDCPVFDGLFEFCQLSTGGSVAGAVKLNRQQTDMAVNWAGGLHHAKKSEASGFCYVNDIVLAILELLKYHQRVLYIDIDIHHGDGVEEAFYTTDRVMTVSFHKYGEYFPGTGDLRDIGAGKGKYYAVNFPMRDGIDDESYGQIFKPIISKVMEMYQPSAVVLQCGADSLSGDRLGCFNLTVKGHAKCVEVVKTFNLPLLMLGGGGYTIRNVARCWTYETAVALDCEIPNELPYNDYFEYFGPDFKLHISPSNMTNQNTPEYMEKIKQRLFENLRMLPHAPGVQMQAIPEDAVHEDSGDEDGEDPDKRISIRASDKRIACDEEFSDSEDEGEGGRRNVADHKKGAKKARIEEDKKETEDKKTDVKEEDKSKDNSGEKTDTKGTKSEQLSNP
procedure summary: HDAC enzyme activity inhibition assay, HDAC2
Format: biochemical
condition description: Table 2; mean of two experiments
readout kind: IC50

[ask] Dear colleague, I am looking for the recorded IC50 of the following compound: O=C(NO)c1ccc(CN2CCCc3cc(Cl)ccc32)cc1
[reply] > 30000 nM

----------
system under test: Human HDAC1 (Homo sapiens (Human))
procedure summary: HDAC enzyme activity inhibition assay, HDAC1
Type: biochemical
condition description: Table 1; mean of two experiments ± standard deviation; 10-point assay from 30 μM, 3-fold serial dilution
readout kind: IC50 (nM)
Return type: number; implicit unit nM.

[ask] Dear colleague, I am looking for the recorded IC50 of the following compound: CC1(C)CCN(Cc2ccc(C(=O)NO)cc2)c2ccc(F)cc21
[reply] 21100

[ask] Can you check O=C(NO)c1ccc(CN2CCSc3ccccc32)cc1 next?
[reply] 7940

[ask] Can you check O=C(NO)c1ccc(CN2CCNc3ccccc32)cc1 next?
[reply] 8750

[ask] Can you check O=C(NO)c1ccc(Cn2c(=O)cnc3ccccc32)cc1 next?
[reply] 1040

[ask] Can you check O=C(NO)c1ccc(CN2CCCc3cc(Cl)c(Cl)cc32)cc1 next?
[reply] 2620

[ask] Can you check CC1(C)CC(=O)N(Cc2ccc(C(=O)NO)cc2)c2ccc(Cl)cc21 next?
[reply] 6500

[ask] Can you check O=C(NO)c1ccc(CN2CCCc3ccccc32)cc1 next?
[reply] 11100

[ask] Can you check CC1(C)CCc2cc(F)ccc2N1Cc1ccc(C(=O)NO)cc1 next?
[reply] 14100

[ask] Can you check CC(C)(C)OC(=O)N1CC(=O)N(Cc2ccc(C(=O)NO)cc2)c2ccccc21 next?
[reply] 22000

[ask] Can you check CC1(C)CCN(Cc2ccc(C(=O)NO)cc2)c2ccc(Cl)cc21 next?
[reply] 19500

----------
Kindly state IC50 for each of the entries shown.
system under test: Human HDAC6 (Homo sapiens (Human))
procedure summary: HDAC enzyme activity inhibition assay, HDAC6
Format: biochemical
condition description: Table 1; mean of two experiments ± standard deviation; 10-point assay from 30 μM, 3-fold serial dilution
Return type: number; implicit unit nM.

[ask] IC50 of O=C(NO)c1ccc(CN2CCCc3cc(Cl)ccc32)c(F)c1 on Human HDAC6 (Homo sapiens (Human))?
[reply] 12.4

[ask] Can you check CC1(C)CCc2cc(Cl)ccc2N1Cc1ccc(C(=O)NO)cc1 next?
[reply] 328

[ask] Can you check CC1(C)CCN(Cc2ccc(C(=O)NO)cc2)c2ccc(F)cc21 next?
[reply] 45.1

[ask] Can you check O=C(NO)c1ccc(CN2CCCc3ccccc32)cc1 next?
[reply] 14.6

[ask] Can you check O=C(NO)c1ccc(CN2CC[S+]([O-])c3ccccc32)cc1 (stereo not shown) next?
[reply] 2

[ask] Can you check CC(c1ccc(C(=O)NO)cc1)N1CCCc2cc(Cl)ccc21 (stereo not shown) next?
[reply] 382

[ask] Can you check O=C(NO)c1ccc(CN2CCNc3ccccc32)cc1 next?
[reply] 2.9

[ask] Can you check CC1(C)CCN(Cc2ccc(C(=O)NO)cc2)c2ccc(Cl)cc21 next?
[reply] 37.8

[ask] Can you check O=C(NO)c1ccc(CN2CCN(CC3CC3)c3ccccc32)cc1 next?
[reply] 39.3

[ask] Can you check O=C(NO)c1ccc(Cn2c(=O)cnc3ccccc32)cc1 next?
[reply] 1.2

----------
Kindly state Selectivity HDAC1/HDAC6 for each of the entries shown.
system under test: Human HDAC6 (Homo sapiens (Human))
procedure summary: HDAC enzyme activity inhibition assay, HDAC6
Assay type: biochemical
condition description: Table 1; ratio of IC50 values
// keep it numeric: no unit symbol after the value

[ask] Selectivity HDAC1/HDAC6 of O=C(NO)c1ccc(Cn2c(=O)cnc3ccccc32)cc1 on Human HDAC6 (Homo sapiens (Human))?
[reply] 870

[ask] Can you check O=C(NO)c1ccc(CN2CCCc3cc(F)c(Cl)cc32)cc1 next?
[reply] 544

[ask] Can you check CC(C)(C)OC(=O)N1CC(=O)N(Cc2ccc(C(=O)NO)cc2)c2ccccc21 next?
[reply] 653

[ask] Can you check O=C(NO)c1ccc(CN2CCN(CC3CC3)c3ccccc32)cc1 next?
[reply] 170

[ask] Can you check CC1(C)CC(=O)N(Cc2ccc(C(=O)NO)cc2)c2ccc(Cl)cc21 next?
[reply] 225

[ask] Can you check CC1(C)CCN(Cc2ccc(C(=O)NO)cc2)c2ccc(F)cc21 next?
[reply] 468

[ask] Can you check CC1(C)CCc2cc(F)ccc2N1Cc1ccc(C(=O)NO)cc1 next?
[reply] 88

[ask] Can you check O=C(NO)c1ccc(CN2CCCc3cc(Cl)c(F)cc32)cc1 next?
[reply] 670

[ask] Can you check O=C(NO)c1ccc(CN2CCCc3cc(F)ccc32)cc1 next?
[reply] 1037

----------
Kindly state IC50 for each of the entries shown.
system under test: Human HDAC1 (Homo sapiens (Human), UniProt Q13547)
Sequence (Q13547 whole entry): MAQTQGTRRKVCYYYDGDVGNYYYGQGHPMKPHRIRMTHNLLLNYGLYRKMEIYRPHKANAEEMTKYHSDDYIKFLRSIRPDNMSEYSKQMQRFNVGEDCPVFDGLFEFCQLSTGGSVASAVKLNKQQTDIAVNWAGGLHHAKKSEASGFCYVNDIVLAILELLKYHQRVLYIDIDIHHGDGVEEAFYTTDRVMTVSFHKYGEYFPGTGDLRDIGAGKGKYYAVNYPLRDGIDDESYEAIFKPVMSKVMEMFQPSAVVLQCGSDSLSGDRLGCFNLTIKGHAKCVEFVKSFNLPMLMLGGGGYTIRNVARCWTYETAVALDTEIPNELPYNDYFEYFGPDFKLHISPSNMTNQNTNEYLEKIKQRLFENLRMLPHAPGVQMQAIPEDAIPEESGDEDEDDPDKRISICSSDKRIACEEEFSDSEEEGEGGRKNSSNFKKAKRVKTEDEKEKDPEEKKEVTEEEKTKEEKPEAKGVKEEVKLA
procedure summary: HDAC enzyme activity inhibition assay, HDAC1
Assay type: biochemical
condition description: Table 1; mean of two experiments ± standard deviation; 10-point assay from 30 μM, 3-fold serial dilution
Return type: number; implicit unit nM.

[ask] Dear colleague, I am looking for the recorded IC50 of the following molecule: O=C(NO)c1ccc(CN2CCCc3cc(F)c(Cl)cc32)cc1 [Example 7]
[reply] 1860

[ask] Can you check O=C(NO)c1ccc(CN2CCN(CC3CC3)c3ccccc32)cc1 [Example 15] next?
[reply] 6690

[ask] Can you check O=C(NO)c1ccc(CN2CCCc3cc(Cl)c(F)cc32)cc1 [Example 8] next?
[reply] 3220

[ask] Can you check O=C(NO)c1ccc(CN2CCCc3cc(F)ccc32)cc1 [Example 5] next?
[reply] 5240

[ask] Can you check O=C(NO)c1ccc(CN2CCCc3cc(Cl)ccc32)c(F)c1 [Example 3] next?
[reply] 21200

[ask] Can you check CC1(C)CCc2cc(Cl)ccc2N1Cc1ccc(C(=O)NO)cc1 [Example 9] next?
[reply] 19600

[ask] Can you check O=C(NO)c1ccc(CN2CC[S+]([O-])c3ccccc32)cc1 (centres unmarked) [Example 17] next?
[reply] 2600

[ask] Can you check CC(c1ccc(C(=O)NO)cc1)N1CCCc2cc(Cl)ccc21 (centres unmarked) [Example 4] next?
[reply] 8430

----------
system under test: HDAC5 (Homo sapiens (Human), UniProt Q9UQL6)
Sequence (Q9UQL6 whole entry): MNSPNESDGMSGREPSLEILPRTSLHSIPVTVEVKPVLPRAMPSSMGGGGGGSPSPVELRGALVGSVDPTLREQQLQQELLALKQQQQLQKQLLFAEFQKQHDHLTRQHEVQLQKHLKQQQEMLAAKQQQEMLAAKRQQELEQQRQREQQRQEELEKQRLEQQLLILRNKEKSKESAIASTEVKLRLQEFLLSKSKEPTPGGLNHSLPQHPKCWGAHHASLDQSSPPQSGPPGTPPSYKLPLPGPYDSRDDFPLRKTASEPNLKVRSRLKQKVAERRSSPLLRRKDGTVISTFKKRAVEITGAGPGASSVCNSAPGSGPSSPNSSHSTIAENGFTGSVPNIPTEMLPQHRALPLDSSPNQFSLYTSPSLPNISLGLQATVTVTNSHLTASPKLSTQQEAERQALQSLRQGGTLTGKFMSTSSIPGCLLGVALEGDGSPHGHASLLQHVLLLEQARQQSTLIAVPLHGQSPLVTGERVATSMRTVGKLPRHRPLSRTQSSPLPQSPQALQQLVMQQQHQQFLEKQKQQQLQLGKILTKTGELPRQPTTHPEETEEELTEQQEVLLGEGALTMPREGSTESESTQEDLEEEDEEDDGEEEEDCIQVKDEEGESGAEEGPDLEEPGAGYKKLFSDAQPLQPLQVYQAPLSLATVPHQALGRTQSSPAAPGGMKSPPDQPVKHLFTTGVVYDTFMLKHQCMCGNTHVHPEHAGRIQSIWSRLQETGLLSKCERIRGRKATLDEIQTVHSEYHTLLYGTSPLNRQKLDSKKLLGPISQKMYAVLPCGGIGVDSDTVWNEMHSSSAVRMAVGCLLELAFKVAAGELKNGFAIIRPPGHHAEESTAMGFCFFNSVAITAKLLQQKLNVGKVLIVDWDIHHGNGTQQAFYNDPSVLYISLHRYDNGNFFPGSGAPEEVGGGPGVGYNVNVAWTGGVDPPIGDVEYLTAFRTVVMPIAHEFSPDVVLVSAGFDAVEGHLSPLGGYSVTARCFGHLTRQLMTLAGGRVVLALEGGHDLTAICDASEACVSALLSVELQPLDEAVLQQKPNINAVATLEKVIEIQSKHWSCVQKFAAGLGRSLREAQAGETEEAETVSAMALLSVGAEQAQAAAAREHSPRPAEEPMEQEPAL
procedure summary: HDAC enzyme activity inhibition assay, HDAC5
Assay type: biochemical
condition description: Table 2; mean of two experiments
readout kind: IC50
Phrase the answer as number then unit, nothing more needed.

[ask] Dear colleague, I am looking for the recorded IC50 of the following molecule: O=C(NO)c1ccc(CN2CCCc3cc(Cl)ccc32)cc1
[reply] 4550 nM

----------
system under test: Human HDAC6 (Homo sapiens (Human))
procedure summary: HDAC enzyme activity inhibition assay, HDAC6
Format: biochemical
condition description: Table 1; mean of two experiments ± standard deviation; 10-point assay from 30 μM, 3-fold serial dilution
readout kind: IC50 (nM)
Return type: number; implicit unit nM.

[ask] IC50 of CC1(C)CCc2cc(F)ccc2N1Cc1ccc(C(=O)NO)cc1 [Example 10] on Human HDAC6 (Homo sapiens (Human))?
[reply] 161

[ask] Can you check O=C(NO)c1ccc(CN2CCCc3cc(Cl)c(F)cc32)cc1 [Example 8] next?
[reply] 4.8

[ask] Can you check O=C(NO)c1ccc(CN2CCSc3ccccc32)cc1 [Example 16] next?
[reply] 6.1

[ask] Can you check O=C(NO)c1ccc(CN2CCCc3cc(F)ccc32)cc1 [Example 5] next?
[reply] 5.05

[ask] Can you check CC(C)(C)OC(=O)N1CC(=O)N(Cc2ccc(C(=O)NO)cc2)c2ccccc21 [Example 18] next?
[reply] 33.6

[ask] Can you check O=C(NO)c1ccc(CN2CCCc3cc(Cl)c(Cl)cc32)cc1 [Example 6] next?
[reply] 3.59

[ask] Can you check CC1(C)CC(=O)N(Cc2ccc(C(=O)NO)cc2)c2ccc(Cl)cc21 [Example 11] next?
[reply] 28.9

[ask] Can you check O=C(NO)c1ccc(CN2CCCc3cc(F)c(Cl)cc32)cc1 [Example 7] next?
[reply] 3.43
